melting point reference

# count of solved cases: 2
[[record]]
molecule = "COc1cc2cc(C=NO)c(Cl)nc2cc1OC"
result = "237 to 238 °C"

[[record]]
molecule = "COc1cc2[nH]c(SCc3nccc(OC)c3OC)nc2cc1OC(F)F"
result = "137 to 138 °C"


API: the following record is the query input.
Query: Entry Cc1nc(N2CCCC2)ccc1N1CCCn2c1nc1c(Cl)ccc(C(OC(F)F)C(F)(F)F)c12 (stereo not drawn) has what melting point?
Response: 233 to 236 °C

----------
melting point reference

# count of solved cases: 10
[[record]]
compound = "Cc1nnsc1C(=O)NS(=O)(=O)c1ccc(Cl)cc1"
result = "165 °C"

[[record]]
compound = "CC(=O)NC[C@H]1CN(c2ccc(N3CCC(n4nnnc4CC(=O)N4CCOCC4)CC3)c(F)c2)C(=O)O1"
result = "146 to 148 °C"

[[record]]
compound = "CCOC(=O)N1CCC(Nc2nc3cccnc3n2Cc2ccc(CC)o2)CC1"
result = "111 °C"

[[record]]
compound = "COCC(=O)Nc1cccc2c1C(=O)N(C1(C)CCC(=O)NC1=O)C2=O (stereo not given)"
result = "244 to 246 °C"

[[record]]
compound = "N#CC(=Cc1ccc2[nH]ccc2c1)S(=O)(=O)c1ccc([N+](=O)[O-])cc1"
result = "219 to 221 °C"

[[record]]
compound = "CC(C)(C)C1=C(c2cc3cc(O)ccc3o2)OCC1(C)C"
result = "129 to 130 °C"

[[record]]
compound = "CC(C)(C)OC(=O)CN1CC(c2ccco2)SCC(N)C1=O (stereo not given)"
result = "90 to 92 °C"

[[record]]
compound = "O=C(CN1CCC(Cc2ccccc2)CC1)Nc1ccc2[nH]c(=O)[nH]c2c1"
result = "270 °C"

[[record]]
compound = "CC(O)C1C(=O)NC1CC(=O)OCc1ccccc1 (mixture of isomers)"
result = "67.5 to 68.5 °C"

[[record]]
compound = "CCCCCCS(=O)(=O)c1nn2c(=O)c([N+](=O)[O-])c(OC)nc2s1"
result = "150 to 152 °C"


Query: Entry O=C(O)[C@@H]1CCC(=O)N1C(=O)c1ccccc1 has what melting point?
Response: 140 to 141 °C

Query: Entry CCOC(=O)CCc1ccc2c3ccccc3n(Cc3ccccc3)c2c1C has what melting point?
Response: 114 to 115 °C

Query: Entry CC[C@H](C)[C@H](NC(=O)OCc1ccccc1)C(=O)N[C@@H](CO)Cc1c[nH]c2ccccc12 has what melting point?
Response: 198 to 199 °C

Query: Entry COC(=O)C(=CC(=CN(C)C)c1ccccc1[N+](=O)[O-])[N+](=O)[O-] has what melting point?
Response: 211 to 214 °C

Query: Entry Cc1ccnc(NC(=O)C2CC2)c1[N+](=O)[O-] has what melting point?
Response: 179 °C

----------
ENDPOINT: melting point

# count of solved cases: 2
[[record]]
molecule = "COC(=O)C(Cc1ccccc1)Oc1ccc2cc(CNC(=O)c3oc4ccccc4c3C)ccc2c1Br (stereo unspecified)"
endpoint = "melting point"
result = "129 to 133 °C"

[[record]]
molecule = "O=C1N(CCOCc2ccccc2)CCN1c1ccc(C(F)(F)F)cc1"
endpoint = "melting point"
result = "66 to 68 °C"


Query: Entry CCOC(=O)C1=C(COCc2cc(=O)[nH]c(N)n2)NC(C)=C(C(=O)OC)C1c1ccccc1Cl (stereo unspecified) has what melting point?
Response: 185 to 187 °C

Query: Entry COC[C@H](C1CC1)n1cc(Br)nc(Br)c1=O has what melting point?
Response: 98.5 to 100 °C

Query: Entry Cc1csc(C(=O)CCl)c1 has what melting point?
Response: 76 to 77 °C

Query: Entry OCc1c(Cl)c(Cl)c(Cl)c(CO)c1Cl has what melting point?
Response: 228 to 230 °C

----------
ENDPOINT: melting point

# count of solved cases: 3
[[record]]
compound = "O=C(O)c1cc(-c2ccc3c(c2)CCO3)nn(CCCc2ccc(Cl)cc2)c1=O"
endpoint = "melting point"
result = "157 to 160 °C"

[[record]]
compound = "Cc1ccc([N+](=O)[O-])c(OC2CCOC2=O)c1 (stereo not given)"
endpoint = "melting point"
result = "68 to 70 °C"

[[record]]
compound = "CCOC(=O)CCn1c(-c2ccc(Cl)cc2)nc2cccnc21"
endpoint = "melting point"
result = "57 to 59 °C"


Query: Entry COC(=O)C(=Cc1c[nH]c2cc(Cl)ccc12)NC(C)=O has what melting point?
Response: 202 to 203 °C

Query: Entry CC(=O)Nc1cccc(-c2ccc(OC[C@H](O)CCc3cccnc3)cc2)c1 has what melting point?
Response: 110 to 113 °C

----------
melting point reference

# count of solved cases: 2
[[record]]
compound = "CCOC(CNc1nc2ccccc2[nH]1)OCC"
endpoint = "melting point"
result = "117 to 121 °C"

[[record]]
compound = "N=C(N)Nc1nc(CCCCNc2ncc(Cc3ccc(Cl)cc3)c(=O)[nH]2)cs1"
endpoint = "melting point"
result = "200 to 205 °C"


Query: Entry CCCc1c(OCCCOc2ccc(C(=O)CCC(=O)O)c(Cl)c2)ccc(C(C)=O)c1O has what melting point?
Response: 143 to 144 °C

Query: Entry Cn1nc(-c2c(NCc3ccccc3)nc(N)nc2-c2ccccc2)ccc1=O has what melting point?
Response: > 250 °C

Query: Entry COc1ccccc1NC(=O)NCc1cccc2c1C(=O)N(C1CCC(=O)NC1=O)C2=O (configuration not stated) has what melting point?
Response: 214 to 216 °C

Query: Entry CS(=O)(=O)Nc1n[nH]c(-c2ccncc2)c1-c1ccc(F)cc1 has what melting point?
Response: 168 to 170 °C

Query: Entry CSC1=NC(C)C(c2ccccc2)=NN1 (configuration not stated) has what melting point?
Response: 159 to 160 °C

Query: Entry CCOC(=O)N1Cc2cccc3c2c(cn3C)C1 has what melting point?
Response: 76 to 78 °C

Query: Entry Cc1cc(COc2ccc(Oc3ccccc3)cc2)on1 has what melting point?
Response: 48 to 51 °C

Query: Entry COc1ccc(CN(C)CCOc2ccc(NC(=O)c3cccc4c(=O)c5cccc(OC)c5[nH]c34)cc2)cc1OC has what melting point?
Response: 184 °C

Query: Entry OCc1cc(-c2ccccc2)no1 has what melting point?
Response: 48 to 50 °C

----------
melting point reference

# count of solved cases: 2
[[record]]
line_notation = "CN(C)C(=O)n1nc(C(C)(C)C)cc1S(C)(=O)=O"
result = "126 to 128 °C"

[[record]]
line_notation = "Cc1[nH]c2ccc(S(=O)(=O)c3ccc(C(F)(F)F)cc3)cc2c1CCNC(=O)OC(C)(C)C"
result = "162 to 164 °C"


API: the following record is the query input.
Query: Entry O=C(CN1C(=O)C(Cl)=C(Cl)C1=O)Nc1ccc(Cl)cc1 has what melting point?
Response: 212 to 214 °C

----------
melting point reference

# count of solved cases: 8
[[record]]
compound = "CCCOc1ccc(S(=O)(=O)N2CCN(CC)CC2)cc1-c1nc2cc3ncn(Cc4cccc(F)c4)c3cc2c(=O)[nH]1"
endpoint = "melting point"
result = "115 to 117 °C"

[[record]]
compound = "COc1cc(C(=O)O)ccc1-c1ccncc1"
endpoint = "melting point"
result = "239 to 241 °C"

[[record]]
compound = "C=CCN(C#N)c1c(Cl)ccc2nsnc12"
endpoint = "melting point"
result = "62 to 63 °C"

[[record]]
compound = "COc1ccc(Oc2ccc3ccc(N)nc3n2)cc1"
endpoint = "melting point"
result = "200 °C"

[[record]]
compound = "CN(C)c1nc2c(ccc3ccccc32)s1"
endpoint = "melting point"
result = "136 to 138 °C"

[[record]]
compound = "CN(C(=O)OC(C)(C)C)c1cc(Oc2ccc(C34CC5CC(CC(C5)C3)C4)cc2)ccc1N"
endpoint = "melting point"
result = "85 to 90 °C"

[[record]]
compound = "COc1ccn2nc(-c3ccccc3F)c(-c3ccc(=O)n(C)n3)c2c1"
endpoint = "melting point"
result = "220 to 222 °C"

[[record]]
compound = "Cc1cccc2c1nc(COc1ccc(Cl)cc1)n2CCC(C)CNCc1ccccc1 (racemic)"
endpoint = "melting point"
result = "84.5 to 87 °C"


Query: Entry CCOC(=O)C(=NOC)C1=CSc2ccccc2O1 has what melting point?
Response: 78 to 80 °C

Query: Entry CCc1c(Cl)cnc(N)c1F has what melting point?
Response: 71 to 72 °C

----------
ENDPOINT: melting point

Query: Entry COc1cccc(C(O)c2cccc(C(F)(F)F)c2)c1 (stereo unspecified) has what melting point?
Response: 51 to 52 °C

Query: Entry CCCNC(=O)c1ccccc1C(c1ccc(O)cc1)c1ccc(O)cc1 has what melting point?
Response: 202 °C

Query: Entry CC(C)(CCCCCCCCCCC(C)(C)C(Cl)C(=O)O)C(Cl)C(=O)O (stereo unspecified) has what melting point?
Response: 103 to 112 °C

Query: Entry COc1cc(N)c(Cl)cc1C(=O)NC[C@H]1CCN(CCCCCC(=O)c2ccccc2)C[C@H]1OC (relative stereo) has what melting point?
Response: 99 to 101 °C

Query: Entry CCOC(=O)C1(C)C(=O)Nc2cc3[nH]c(-c4cnccn4)nc3cc21 (stereo unspecified) has what melting point?
Response: 288 to 290 °C

Where these numbers come from: a melting point compilation (Tetko et al.; mined from patent text by program, amines drawn as free bases though some values may be those of a salt)
